- experimental_details: Cytotoxicity assay (CCK-8) on replicon cells
- Assay type: cell-based
- measurement_parameters: human, HCV 1b replicon cells (Huh-7.5.1); 50% cytotoxic concentration; CCK-8, HCV 1b replicon cells, 72 h
Exercise: state measured CC50 at 72 h for each of the compounds provided.
A number alone suffices; assume µM.

Supply recorded CC50 at 72 h for O=c1c2ccccc2n(CCc2ccccc2Cl)c(=O)n1O [10c] here.
12.2

Supply recorded CC50 at 72 h for COc1ccc(-c2ccc3[nH]c(=O)n(O)c(=O)c3c2)cc1 [21c] here.
14.8

Supply recorded CC50 at 72 h for Cn1c(=O)n(O)c(=O)c2ccc(-c3ccc(F)cc3)cc21 [23c] here.
8.1

Supply recorded CC50 at 72 h for COc1ccc(-c2ccc3c(=O)n(O)c(=O)[nH]c3c2)cc1 [21i] here.
5.6

Supply recorded CC50 at 72 h for Cc1ccc(F)cc1-c1ccc2c(=O)n(O)c(=O)[nH]c2c1 [21p] here.
13.4

Supply recorded CC50 at 72 h for Nc1cccc(-c2ccc3c(=O)n(O)c(=O)[nH]c3c2)c1 [21j] here.
13

Supply recorded CC50 at 72 h for CCn1c(=O)n(O)c(=O)c2ccc(-c3ccccc3)cc21 [23e] here.
39.5

Supply recorded CC50 at 72 h for O=c1[nH]c2cc(-c3ccc(F)cc3)ccc2c(=O)n1O [21f] here.
4.1

Supply recorded CC50 at 72 h for N#Cc1ccc(NC(=O)Cn2c(=O)n(O)c(=O)c3ccccc32)cc1 [10n] here.
10.6

Supply recorded CC50 at 72 h for O=c1[nH]c2ccc(-c3ccc(F)cc3)cc2c(=O)n1O [21b] here.
8

Supply recorded CC50 at 72 h for Cn1c(=O)n(O)c(=O)c2cc(-c3cccc([N+](=O)[O-])c3)ccc21 [23a] here.
5.2

Supply recorded CC50 at 72 h for O=c1[nH]c2ccc(-c3ccccc3)cc2c(=O)n1O [21a] here.
5.5

Supply recorded CC50 at 72 h for O=c1c2ccccc2n(CCc2ccc(F)cc2)c(=O)n1O [10d] here.
22.2

Supply recorded CC50 at 72 h for O=c1[nH]c2cc(-c3ccco3)ccc2c(=O)n1O [21s] here.
16.3

Supply recorded CC50 at 72 h for Nc1ccccc1-c1ccc2c(=O)n(O)c(=O)[nH]c2c1 [21g] here.
16.2

Supply recorded CC50 at 72 h for O=C(Cn1c(=O)n(O)c(=O)c2ccc(-c3ccco3)cc21)Nc1ccccc1Cl [23j] here.
12.2

Supply recorded CC50 at 72 h for NC(=O)c1ncn([C@@H]2O[C@H](CO)[C@@H](O)[C@H]2O)n1 [RBV, ribavirin, reference compound] here.
45.5

Supply recorded CC50 at 72 h for "O=c1[nH]c2cc(Br)ccc2c(=O)n1O" here.
37.6

Supply recorded CC50 at 72 h for O=C(Cn1c(=O)n(O)c(=O)c2ccccc21)c1ccccc1 [10e] here.
13.1

Supply recorded CC50 at 72 h for COc1ccc(-c2ccc3c(=O)n(O)c(=O)[nH]c3c2)cc1F [21o] here.
4.3

Supply recorded CC50 at 72 h for Cn1c(=O)n(O)c(=O)c2ccc(-c3ccccc3)cc21 [23b] here.
6.7

----------
Exercise: state measured inhibition at 10 µM for each of the molecules provided.
- Test system: HCV 1b replicon cells (Huh-7.5.1)
- experimental_details: Anti-HCV assay, HCV 1b replicon cells with luciferase reporter
- Format: cell-based, hepatitis C virus (HCV) subtype 1b
- measurement_parameters: Hepatitis C virus, Huh-7.5.1, 72 h, inhibitory rate at 10 μM; HCV 1b replicon cells, 72 h; read-out: HCV Inhibition 10 μM
A number alone suffices; assume %.

Specify inhibition at 10 µM for Cn1c(=O)n(O)c(=O)c2ccc(-c3ccccc3)cc21 [23b] , system HCV 1b replicon cells (Huh-7.5.1).
79.5

Specify inhibition at 10 µM for O=c1[nH]c2ccc(-c3cccc([N+](=O)[O-])c3)cc2c(=O)n1O [21d] , system HCV 1b replicon cells (Huh-7.5.1).
78.5

Specify inhibition at 10 µM for Cn1c(=O)n(O)c(=O)c2ccc(-c3ccc(F)cc3)cc21 [23c] , system HCV 1b replicon cells (Huh-7.5.1).
79.1

Specify inhibition at 10 µM for Cn1c(=O)n(O)c(=O)c2ccc(Cc3cc(F)cc(F)c3)cc21 [18c] , system HCV 1b replicon cells (Huh-7.5.1).
39.5

Specify inhibition at 10 µM for O=c1[nH]c2cc(-c3ccc(F)cc3F)ccc2c(=O)n1O [21n] , system HCV 1b replicon cells (Huh-7.5.1).
69.7

Specify inhibition at 10 µM for COc1ccc(-c2ccc3c(=O)n(O)c(=O)n(C)c3c2)cc1 [23d] , system HCV 1b replicon cells (Huh-7.5.1).
73.3

Specify inhibition at 10 µM for COc1ccc(-c2cccc3c(=O)n(O)c(=O)[nH]c23)cc1 [21w] , system HCV 1b replicon cells (Huh-7.5.1).
11.5

Specify inhibition at 10 µM for O=c1[nH]c2c(-c3ccc(F)cc3)cccc2c(=O)n1O [21v] , system HCV 1b replicon cells (Huh-7.5.1).
23.5

Specify inhibition at 10 µM for O=c1c2ccc(-c3ccccc3)cc2n(Cc2ccccc2)c(=O)n1O [23i] , system HCV 1b replicon cells (Huh-7.5.1).
-6.5

Specify inhibition at 10 µM for Nc1cccc(-c2ccc3c(=O)n(O)c(=O)[nH]c3c2)c1 [21j] , system HCV 1b replicon cells (Huh-7.5.1).
51

Specify inhibition at 10 µM for O=C(Cn1c(=O)n(O)c(=O)c2ccc(-c3ccco3)cc21)Nc1ccccc1Cl [23j] , system HCV 1b replicon cells (Huh-7.5.1).
47.8

Specify inhibition at 10 µM for COc1ccc(-c2ccc3[nH]c(=O)n(O)c(=O)c3c2)cc1 [21c] , system HCV 1b replicon cells (Huh-7.5.1).
48.2

Specify inhibition at 10 µM for O=c1[nH]c2cc(Cc3ccccc3)ccc2c(=O)n1O [18a] , system HCV 1b replicon cells (Huh-7.5.1).
28.6

Specify inhibition at 10 µM for CCCn1c(=O)n(O)c(=O)c2ccc(-c3ccccc3)cc21 [23g] , system HCV 1b replicon cells (Huh-7.5.1).
-2.2

Specify inhibition at 10 µM for O=c1[nH]c2cc(-c3cc(F)c(F)c(F)c3)ccc2c(=O)n1O [21q] , system HCV 1b replicon cells (Huh-7.5.1).
26.8

Specify inhibition at 10 µM for O=C(Cn1c(=O)n(O)c(=O)c2ccccc21)NCc1c(Cl)cccc1Cl [10k] , system HCV 1b replicon cells (Huh-7.5.1).
43.7

Specify inhibition at 10 µM for O=c1c2ccccc2n(CCCc2ccccc2)c(=O)n1O [10b] , system HCV 1b replicon cells (Huh-7.5.1).
28.6

Specify inhibition at 10 µM for O=c1c2ccccc2n(CCc2ccccc2Cl)c(=O)n1O [10c] , system HCV 1b replicon cells (Huh-7.5.1).
33.4

Specify inhibition at 10 µM for O=c1[nH]c2cc(Br)ccc2c(=O)n1O [compound 19] , system HCV 1b replicon cells (Huh-7.5.1).
41.1

Specify inhibition at 10 µM for N#Cc1ccc(NC(=O)Cn2c(=O)n(O)c(=O)c3ccccc32)cc1 [10n] , system HCV 1b replicon cells (Huh-7.5.1).
58

Specify inhibition at 10 µM for O=c1[nH]c2ccc(-c3ccccc3)cc2c(=O)n1O [21a] , system HCV 1b replicon cells (Huh-7.5.1).
65.4

----------
Exercise: state measured inhibition at 10 µM for each of the molecules provided.
- Test system: HCV 1b replicon cells (Huh-7.5.1)
- experimental_details: Anti-HCV assay, HCV 1b replicon cells with luciferase reporter
- Assay type: cell-based, hepatitis C virus (HCV) subtype 1b
- measurement_parameters: Hepatitis C virus, Huh-7.5.1, 72 h, inhibitory rate at 10 μM; HCV 1b replicon cells, 72 h; read-out: HCV Inhibition 10 μM

Supply recorded inhibition at 10 µM for O=c1[nH]c2cc(-c3cc4ccccc4o3)ccc2c(=O)n1O [21t] here.
68.3%

Supply recorded inhibition at 10 µM for O=c1[nH]c2cc(-c3cc(F)cc(F)c3)ccc2c(=O)n1O [21m] here.
48.2%

Supply recorded inhibition at 10 µM for CCCn1c(=O)n(O)c(=O)c2cc(-c3ccccc3)ccc21 [23f] here.
26.7%

Supply recorded inhibition at 10 µM for O=c1[nH]c2cc(-c3ccccc3)ccc2c(=O)n1O [21e] here.
78.1%

Supply recorded inhibition at 10 µM for O=c1[nH]c2cc(-c3cccc([N+](=O)[O-])c3)ccc2c(=O)n1O [21k] here.
70.6%

----------
- Test system: HCV 1b replicon cells (Huh-7.5.1)
- experimental_details: Anti-HCV assay, HCV 1b replicon cells with luciferase reporter
- Assay type: cell-based, hepatitis C virus (HCV) subtype 1b
- measurement_parameters: Hepatitis C virus, Huh-7.5.1, 72 h, inhibitory rate at 10 μM; HCV 1b replicon cells, 72 h; read-out: HCV Inhibition 10 μM
- Experimental: The HCV replicons were validated as convenient and effective models for testing the anti-HCV activity. […] The inhibitory rates of the compounds on HCV replicon cells were determined at concentrations of 25 μM and 10 μM, respectively. […] The cytotoxicity of these compounds on replicon cells was determined using the cell counting kit-8 (CCK-8) assay. […]
Class satisfied: inhibition at 10 µM at least 30%. Class not satisfied: inhibition at 10 µM below 30%.

Could you tell me if the measured inhibition at 10 µM of O=c1c2cc(-c3ccccc3)ccc2n(Cc2ccccc2)c(=O)n1O [23h] reaches 30% or more?
not satisfied

Could you tell me if the measured inhibition at 10 µM of CCn1c(=O)n(O)c(=O)c2ccc(-c3ccccc3)cc21 [23e] reaches 30% or more?
not satisfied

Could you tell me if the measured inhibition at 10 µM of O=c1c2ccccc2n(CCc2ccc(F)cc2)c(=O)n1O [10d] reaches 30% or more?
satisfied

Could you tell me if the measured inhibition at 10 µM of O=c1[nH]c2cc(-c3ccc(F)cc3)ccc2c(=O)n1O [21f] reaches 30% or more?
satisfied

Could you tell me if the measured inhibition at 10 µM of O=C(Cn1c(=O)n(O)c(=O)c2ccccc21)Nc1ccc(C(F)(F)F)cc1 [10p] reaches 30% or more?
satisfied

Could you tell me if the measured inhibition at 10 µM of O=C(Cn1c(=O)n(O)c(=O)c2ccccc21)NCc1ccc(F)cc1 [10m] reaches 30% or more?
not satisfied

Could you tell me if the measured inhibition at 10 µM of O=c1[nH]c2cc(-c3ccc(F)c(Cl)c3)ccc2c(=O)n1O [21l] reaches 30% or more?
satisfied

Could you tell me if the measured inhibition at 10 µM of COc1ccc(-c2ccc3c(=O)n(O)c(=O)[nH]c3c2)cc1F [21o] reaches 30% or more?
satisfied

Could you tell me if the measured inhibition at 10 µM of O=c1[nH]c2ccc(-c3ccc(F)cc3)cc2c(=O)n1O [21b] reaches 30% or more?
satisfied

Could you tell me if the measured inhibition at 10 µM of COc1ccc(-c2ccc3c(=O)n(O)c(=O)[nH]c3c2)cc1 [21i] reaches 30% or more?
satisfied

Could you tell me if the measured inhibition at 10 µM of CCCCNC(=O)Cn1c(=O)n(O)c(=O)c2ccccc21 [10i] reaches 30% or more?
not satisfied

Could you tell me if the measured inhibition at 10 µM of O=C(Cn1c(=O)n(O)c(=O)c2ccccc21)NCc1ccccc1 [10h] reaches 30% or more?
not satisfied

Could you tell me if the measured inhibition at 10 µM of O=C(Cn1c(=O)n(O)c(=O)c2ccccc21)NCc1cccc(F)c1 [10l] reaches 30% or more?
not satisfied

Could you tell me if the measured inhibition at 10 µM of O=c1[nH]c2cc(-c3ccco3)ccc2c(=O)n1O [21s] reaches 30% or more?
satisfied

Could you tell me if the measured inhibition at 10 µM of Cn1c(=O)n(O)c(=O)c2cc(-c3cccc([N+](=O)[O-])c3)ccc21 [23a] reaches 30% or more?
satisfied

Could you tell me if the measured inhibition at 10 µM of O=c1[nH]c2c(-c3ccccc3)cccc2c(=O)n1O [21u] reaches 30% or more?
not satisfied

Could you tell me if the measured inhibition at 10 µM of Nc1ccccc1-c1ccc2c(=O)n(O)c(=O)[nH]c2c1 [21g] reaches 30% or more?
satisfied

Could you tell me if the measured inhibition at 10 µM of O=c1[nH]c2c(-c3ccc(C(F)(F)F)cc3)cccc2c(=O)n1O [21x] reaches 30% or more?
not satisfied

Could you tell me if the measured inhibition at 10 µM of O=C(Cn1c(=O)n(O)c(=O)c2ccccc21)NCC1CC1 [10g] reaches 30% or more?
not satisfied

Could you tell me if the measured inhibition at 10 µM of O=C(Cn1c(=O)n(O)c(=O)c2ccccc21)c1ccccc1 [10e] reaches 30% or more?
satisfied

Could you tell me if the measured inhibition at 10 µM of O=C(Cn1c(=O)n(O)c(=O)c2ccccc21)NCCc1ccccc1 [10f] reaches 30% or more?
not satisfied

Could you tell me if the measured inhibition at 10 µM of Cn1c(=O)n(O)c(=O)c2ccc(Cc3ccccc3)cc21 [18b] reaches 30% or more?
not satisfied

Could you tell me if the measured inhibition at 10 µM of COc1ccc(NC(=O)Cn2c(=O)n(O)c(=O)c3ccccc32)cc1 [10o] reaches 30% or more?
not satisfied

Could you tell me if the measured inhibition at 10 µM of O=c1[nH]c2cc(-c3ccc(C(F)(F)F)cc3)ccc2c(=O)n1O [21h] reaches 30% or more?
satisfied

Could you tell me if the measured inhibition at 10 µM of O=c1[nH]c2cc(-c3cccnc3)ccc2c(=O)n1O [21r] reaches 30% or more?
not satisfied

Could you tell me if the measured inhibition at 10 µM of Cc1ccc(F)cc1-c1ccc2c(=O)n(O)c(=O)[nH]c2c1 [21p] reaches 30% or more?
satisfied
